// data source = the supplement of paper PMC9112550

Test system: Escherichia coli TOP10;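 further: peptides expressed intracellularly from a pBAD plasmid library in pooled LB shake-flask culture, induced with 0.3% L-arabinose, DNA abundance read by NGS, three biological replicates, DESeq2 with apeglm shrinkage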
Run description: shrunken log2 fold change of peptide-encoding DNA abundance (4.5 h post-induction vs induction); higher = less antimicrobial activity (less host growth inhibition)
Setup conditions: time post-induction: 4.5 h; library: site-saturation at positions 5, 18, 19, 20
Metric: shrunken log2 fold change
Answer using only a numeral; do not append any unit.

Look over these answered cases.
Biosequence | shrunken log2 fold change
RRIRDRPPRLPRPRPRPHWYPRP | -0.212
RRIRYRPPRLPRPRPRPQPTPRP | 0.0156
RRIRSRPPRLPRPRPRPRGYPRP | 0.13

The sequence `RRIRGRPPRLPRPRPRPWLSPRP` , tested on Escherichia coli TOP10, showed shrunken log2 fold change of -0.0504

Measured on Escherichia coli TOP10, `RRIRKRPPRLPRPRPRPIAKPRP` has a documented shrunken log2 fold change of 0.141

The observed shrunken log2 fold change for `RRIRMRPPRLPRPRPRPDQRPRP` when tested with Escherichia coli TOP10 stands at -0.105

GET /values?item= `RRIRGRPPRLPRPRPRPAIRPRP` &system= Escherichia coli TOP10 returns shrunken log2 fold change: 0.768

// sequence `RRIRSRPPRLPRPRPRPAWVPRP` , assay Escherichia coli TOP10, shrunken log2 fold change value: 0.441

Field shrunken log2 fold change (system: Escherichia coli TOP10) for entry `RRIRSRPPRLPRPRPRPGPIPRP` = 0.298

Entry `RRIRGRPPRLPRPRPRPHSEPRP` : shrunken log2 fold change on Escherichia coli TOP10 = 0.194

Log: Escherichia coli TOP10, sequence `RRIRSRPPRLPRPRPRPRTAPRP` , shrunken log2 fold change = 0.0119

Measured shrunken log2 fold change for this entry `RRIRGRPPRLPRPRPRPGERPRP` on Escherichia coli TOP10: 0.731

Bench note, Escherichia coli TOP10: `RRIRFRPPRLPRPRPRPHNPPRP` , shrunken log2 fold change reads -0.288

Readout shrunken log2 fold change for `RRIRDRPPRLPRPRPRPMFRPRP` , test system Escherichia coli TOP10, was -0.114

Fill in: Escherichia coli TOP10 shrunken log2 fold change for `RRIRRRPPRLPRPRPRPLVIPRP` = -0.0686

Item `RRIRARPPRLPRPRPRPGVIPRP` was tested on Escherichia coli TOP10; the reported shrunken log2 fold change is 0.0533

Summary: `RRIRVRPPRLPRPRPRPYCPPRP` , Escherichia coli TOP10, shrunken log2 fold change = -0.462

Form: item `RRIRFRPPRLPRPRPRPSGMPRP` ; test system Escherichia coli TOP10; shrunken log2 fold change: -0.637
